// log10(IC50) lookup, one value per entry
Target: HLA-DRB5 (DRB5*0101) (Homo sapiens, UniProt P01903+Q30154)
Experiment: Competitive HLA II/peptide binding assay, HLA-DRB5
Details: competition with biotinylated tracer; 3 independent experiments
No end group written: not given here.
measurement kind: log10(IC50) (log10 of the value in µM)

>>> endpoint_result("GEFLKLDRERAKNKI [99-113, G E F L K L D R E R A K N K I]")
-1.66
>>> endpoint_result("LKLDRERAKNKIAKE [102-116, L K L D R E R A K N K I A K E]")
-1.74
>>> endpoint_result("LSVKKQFEELTLGEF [87-101, L S V K K Q F E E L T L G E F]")
0.78
>>> endpoint_result("FCFKELEGWEPDDDP [59-73, F C F K E L E G W E P D D D P]")
1.65
>>> endpoint_result("HRISTFKNWPFLEGC [peptide 17-31, H R I S T F K N W P F L E G C]")
-0.52
>>> endpoint_result("MGAPTLPPAWQPFLK [1-15, M G A P T L P P A W Q P F L K]")
0.90
